- Test system: K-562 leukemia
- Protocol description: NCI-60 one-dose screen, 48 h
- Setup conditions: 10 µM unless noted
This is part of a sample that, as a whole, favours compounds with a hit. Of some 83,000 tested, about 20% had one in any assay. The source made the active and inactive calls. Rule for the calls: active = growth percent below 10; inactive = the rest.
Pick one and only one: True = active, False = inactive

Illustrative cases are given below, each with its answer.
> print(dat)
                                   compound  category
1  Cn1cc(-c2cc3nc(-c4cn(C)c5ncccc45)cc(N)n3n2)c2cc(Cl)ccc21      True
2  CCCSc1nc(Nc2ccc(S(N)(=O)=O)cc2)c(C#N)c(-c2ccc(Cl)cc2)n1      True
3  COc1c(F)ccc(C(=O)Nc2ccc3nc(NC(=O)C4CCCN(S(=O)(=O)c5cccc(Br)c5)C4)sc3c2)c1F (stereo not given)     False
4  CC12CC[C@@H]3[C@]4(C)COC(c5cn[nH]c5-c5cccc(Br)c5)O[C@@H]4CC[C@@]3(C)[C@@H]1CC(C1=CCOC1=O)O2 (stereo not given in full)     False

Alright, here's another compound for you.
**Q:** Write down the call the test reported for this compound. Item: COc1ccc2oc3c4[nH]c5ccccc5c4c4c(c3c2c1)C(=O)N(C(=O)OC(C)(C)C)C4=O
**A:** True
